- Test system: HCT-116 colon
- Protocol description: NCI tumour cell line growth inhibition, 48 h
Reported property: TGI

Query block: Give the measured TGI of O=C1C2C(C(=O)N1OS(=O)(=O)c1ccccc1)N(Cc1ccccc1)C(=O)N2Cc1ccccc1 (stereo unspecified) .
Result block: > 100 µM

Query block: Any idea what its TGI is? The molecule is "C(/c1ccco1)=c1/nc(-c2ccccc2)n2c1nc1ccccc12"
Result block: 71.1 µM

Query block: Which value of TGI has been reported for CCCCC(=O)OCC(=O)[C@]1(O)Cc2c(O)c3c(c(O)c2[C@@H](OC2CC(NC(=O)C(F)(F)F)C(O)C(C)O2)C1)C(=O)c1c(OC)cccc1C3=O (stereo partly specified) in the records?
Result block: 2.91 µM

Query block: Entry under review: Nc1ccccc1SC(C[N+](=O)[O-])c1ccc2c(c1)OCO2 (stereo unspecified) . Reported TGI?
Result block: 3.71 µM

Query block: Fill in the blank: the reported TGI of COc1ccccc1C12OC(=O)C1(C)Oc1ccccc1C2=O (stereo unspecified) is ____.
Result block: > 100 µM

Query block: What measured TGI goes with "N#CN=C(N(Cc1ccccc1)Cc1ccccc1)N(Cc1ccccc1)Cc1ccccc1" ?
Result block: > 100 µM

----------
- Test system: MCF7 breast
- Protocol description: NCI tumour cell line growth inhibition, 48 h; in the data active = GI50 below about 0.43 µM; inactive = the rest
Hi! Could you answer with just one of these? active, inactive

Query block: For this molecule, state the assay outcome: "COc1cc(/C=N/NC(=O)c2ccc(C(F)(F)F)nc2Nc2ccc(Cl)cc2C)ccc1O"
Result block: inactive

Query block: Please share the test call associated with CCCNC1=C2CC(C)CC(OC)[C@@H](O)[C@H](C)/C=C(\C)C(OC(N)=O)C(OC)/C=C\C=C(/C)C(=O)NC(=CC1=O)C2=O (stereo partly drawn) .
Result block: active

Query block: Which outcome was assigned to "O=C(Nc1ccccc1OC(F)(F)F)Nc1n[nH]c2ccccc12" in this test?
Result block: inactive

----------
- Tested on: NCI-H23 lung
- Protocol description: NCI tumour cell line growth inhibition, 48 h
I'd be grateful if you could share measured TGI for these entries.
Please reply with the bare figure in µM and do not write the unit itself.

Query block: What TGI value was documented for this molecule, C=C1C(=O)C23CC1CCC2C12CO[C@@H]4OCC(C)(CC[C@@H]1OC3=O)C42 (stereo not given in full) ?
Result block: 16.6

Query block: Which TGI value belongs to "COC1=CC(c2ccc[nH]2)=N/C1=C\c1[nH]c(C)c(C(=O)OC(C)C)c1C" ?
Result block: 1.74

Query block: State the recorded TGI for this entry: Clc1cc(OC2C3CC4CC(C3)CC2C4)nc(Cl)n1 (stereo not given)
Result block: 31

Query block: Quick check: TGI of CCC12C=CCN3CCC4(C(=C(C(=O)OC)[C@@H]1O)Nc1ccccc14)C32 (stereo not given in full) ?
Result block: 3.72

----------
Consider the following compounds; for each one, report its TGI.
- Test system: UO-31 renal
- Protocol description: NCI tumour cell line growth inhibition, 48 h

Query block: Could you share what TGI was measured for "FC(F)(F)c1cc(Cl)cnc1N/N=C(/c1ccccc1)c1ccccn1" , tested on UO-31 renal?
Result block: 11.9 µM

Query block: Find TGI (UO-31 renal) for the entry CN1C(=O)C(C)(C)C2(SC(C)(C)C2(C)C)N(C)C1=S (stereo unspecified)
Result block: > 100 µM

Query block: Observed TGI on UO-31 renal for "NNC(=O)Nc1cccnc1" , please.
Result block: > 100 µM

Query block: API: value(readout=TGI, system=UO-31 renal) for record "COc1ccc2c(C3=C(c4cn(C)c5ccccc45)C(=O)NC3=O)cn(C)c2c1"
Result block: > 25 µM

Query block: Request - read-out TGI | tested on UO-31 renal | compound "O=C1CCC(=O)N1n1c(Cc2ccccc2)n[nH]c1=O"
Result block: > 100 µM

Query block: Lookup: TGI / UO-31 renal / "COc1cc2c(cc1OC)C(c1ccccc1CCCCl)=NCC2"
Result block: > 100 µM

Origin of values: PubChem BioAssay (NCI)
